// provenance: the kinase profiling compilation of Christmann-Franck et al. (2016)

So I've got a bunch of compounds here, and I need their residual activity values.
Molecular target: UniProt Q99558
Sequence (Q99558 whole entry, looked up): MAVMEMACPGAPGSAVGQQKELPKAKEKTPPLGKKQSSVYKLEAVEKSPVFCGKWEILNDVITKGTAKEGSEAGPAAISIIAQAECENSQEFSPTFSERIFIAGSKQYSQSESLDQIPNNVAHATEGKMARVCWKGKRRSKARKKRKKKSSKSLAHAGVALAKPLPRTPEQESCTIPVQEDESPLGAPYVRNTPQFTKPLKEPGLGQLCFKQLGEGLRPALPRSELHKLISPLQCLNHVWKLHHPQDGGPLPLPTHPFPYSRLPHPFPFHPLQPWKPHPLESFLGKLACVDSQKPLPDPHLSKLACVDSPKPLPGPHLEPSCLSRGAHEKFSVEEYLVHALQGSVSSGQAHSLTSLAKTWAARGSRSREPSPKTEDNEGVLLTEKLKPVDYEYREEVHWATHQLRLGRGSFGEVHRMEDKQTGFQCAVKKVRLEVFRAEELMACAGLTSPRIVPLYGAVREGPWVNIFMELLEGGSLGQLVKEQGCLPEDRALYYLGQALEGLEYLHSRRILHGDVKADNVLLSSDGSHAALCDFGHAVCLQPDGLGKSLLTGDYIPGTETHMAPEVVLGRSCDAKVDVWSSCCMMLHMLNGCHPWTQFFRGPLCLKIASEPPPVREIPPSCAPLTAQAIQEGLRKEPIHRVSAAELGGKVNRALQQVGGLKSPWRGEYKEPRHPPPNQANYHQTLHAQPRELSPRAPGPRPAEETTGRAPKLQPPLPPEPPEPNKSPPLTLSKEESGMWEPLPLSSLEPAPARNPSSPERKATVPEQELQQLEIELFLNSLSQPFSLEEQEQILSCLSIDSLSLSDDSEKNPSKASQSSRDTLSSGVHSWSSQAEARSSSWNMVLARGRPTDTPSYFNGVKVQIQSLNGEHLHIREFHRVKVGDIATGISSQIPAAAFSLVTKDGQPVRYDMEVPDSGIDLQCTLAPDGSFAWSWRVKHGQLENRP
Assay: radiometric filter-binding kinase assay, Kinase HotSpot
Details: compound 0.5 µM; ATP 10 µM
Response body: numeric value in %, unit text excluded.

What measured residual activity goes with Cn1c2ccccc2c2c3c(c4c5ccccc5n(CCC#N)c4c21)CNC3=O ?
84.1

What measured residual activity goes with CCCCc1c(-c2ccc(OC)cc2)[nH]c2nccnc12 ?
105

What measured residual activity goes with COc1ccc(C(=O)Nc2sc3c(c2C(N)=O)CCCC3)cc1OC ?
88

What measured residual activity goes with N#C/C(=C\c1ccc(O)c(O)c1)C(=O)NCc1ccccc1 ?
109

What measured residual activity goes with CN(C)CCCn1cc(C2=C(c3c[nH]c4ccccc34)C(=O)NC2=O)c2ccccc21 ?
110

What measured residual activity goes with N#Cc1c[nH]c2c[nH]/c(=N\Cc3cccnc3)cc2/c1=N\c1ccc(F)c(Cl)c1 ?
118

What measured residual activity goes with NC(=O)c1cccc(-c2cc(Nc3ccc(OC(F)(F)F)cc3)ncn2)c1 ?
103

What measured residual activity goes with c1ccc2c(-c3ccncc3)c[nH]c2c1 ?
112

What measured residual activity goes with COc1ccc(S(=O)(=O)N(CCO)c2ccccc2CN(C)C/C=C/c2ccc(Cl)cc2)cc1 ?
90.8

What measured residual activity goes with O=C1c2ccccc2-c2nc3nnnn3nc21 ?
124

What measured residual activity goes with Cc1cncc2cccc(S(=O)(=O)N3CCCN(C(=O)CN)C[C@H]3C)c12 ?
109

---

Molecular target: GSK3A (human)
Assay: radiometric filter-binding kinase assay, Kinase HotSpot
Conditions: compound 0.5 µM; ATP 10 µM
observable: residual activity

What measured residual activity goes with COc1ccc(C(=O)Nc2sc3c(c2C(N)=O)CCCC3)cc1OC ?
83.6%

What measured residual activity goes with Cc1cncc2cccc(S(=O)(=O)N3CCCN(C(=O)CN)C[C@H]3C)c12 ?
99.6%

What measured residual activity goes with Cn1c2ccccc2c2c3c(c4c5ccccc5n(CCC#N)c4c21)CNC3=O ?
35.6%

What measured residual activity goes with COc1cc(Nc2c(C#N)cnc3cc(OCCCN4CCN(C)CC4)c(OC)cc23)c(Cl)cc1Cl ?
103%

What measured residual activity goes with O=C1c2ccccc2-c2nc3nnnn3nc21 ?
88.7%

What measured residual activity goes with CCCCc1c(-c2ccc(OC)cc2)[nH]c2nccnc12 ?
55.8%

What measured residual activity goes with Cc1cccc(-c2nc(C(C)(C)C)[nH]c2-c2ccc3c(c2)OCO3)n1 ?
93%

What measured residual activity goes with Fc1ccc(-c2nc3n(c2-c2ccncc2)CCS3)cc1 ?
116%

What measured residual activity goes with CN(C)S(=O)(=O)c1ccc2c(c1)/C(=C/c1cc3c([nH]1)CCCC3)C(=O)N2 ?
99.4%

What measured residual activity goes with CN(C)c1ccc(/C=C2\C(=O)Nc3ccccc32)cc1 ?
104%

What measured residual activity goes with O=C(c1cc2cc(O)ccc2[nH]1)c1cc2cc(O)ccc2[nH]1 ?
75.7%

---

Target: CSNK1A1 (human)
Test: radiometric filter-binding kinase assay, Kinase HotSpot
Details: compound 0.5 µM; ATP 10 µM
observable: residual activity (%)
Response body: numeric value in %, unit text excluded.

What measured residual activity goes with COc1cc2ncnc(Nc3ccc(OCc4ccccc4)cc3)c2cc1OC ?
105

What measured residual activity goes with CC(C)(C)c1cc(C=C(C#N)C#N)cc(Br)c1O ?
84.5

What measured residual activity goes with COc1cc(Nc2c(C#N)cnc3cc(OCCCN4CCN(C)CC4)c(OC)cc23)c(Cl)cc1Cl ?
49.5

What measured residual activity goes with COc1cc2ncnc(Nc3ccc(Oc4ccccc4)cc3)c2cc1OC ?
98.2

What measured residual activity goes with CO[C@@H]1[C@H](N(C)C(=O)c2ccccc2)C[C@H]2O[C@]1(C)n1c3ccccc3c3c4c(c5c6ccccc6n2c5c31)C(=O)NC4 ?
96.2

What measured residual activity goes with N#Cc1c[nH]c2c[nH]/c(=N\Cc3cccnc3)cc2/c1=N\c1ccc(F)c(Cl)c1 ?
101

What measured residual activity goes with O=C1Nc2ccc(Br)cc2/C1=C\c1cc2c([nH]1)CCCC2 ?
100

What measured residual activity goes with COc1ccc(C(=O)Nc2sc3c(c2C(N)=O)CCCC3)cc1OC ?
108

What measured residual activity goes with COc1ccc2c(c1)c(C1=C(c3c[nH]c4ccccc34)C(=O)NC1=O)cn2CCCN(C)C ?
62.3

What measured residual activity goes with CCCCc1c(-c2ccc(OC)cc2)[nH]c2nccnc12 ?
92.9
